Target: T1, Histidine-tagged mfCD40 protein (mfCD40-His), Macaca fascicularis (Macaca fascicularis, UniProt G7PG38 21-193)
T1 construct: not shown: histidine tag
Experiment: SPR, Biacore T200; antibody on Protein A chip, mfCD40-His injected; 1:1 fit
pKd: −log10 of the molar value.
Listed next: entries and their corresponding pKd.

{"columns": ["binder", "pKd"],
 "data": [
  ["4H6-H3K2-IgG4 (antibody, V domains shown, Humanized) VH: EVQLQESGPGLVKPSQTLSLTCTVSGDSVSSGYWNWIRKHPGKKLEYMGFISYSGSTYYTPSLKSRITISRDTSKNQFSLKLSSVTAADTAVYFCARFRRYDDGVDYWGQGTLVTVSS VL: DIQMTQSPSAMSASVGDRVTITCRASHEISGYLSWIQQKPGGTIKRLINAASTLASGVPSRFSGSRSGTEFTLTISSLQPEDFADYYCLQYSSYPWTFGGGTKLEIK", 7.47],
  ["6A7-H3K3-IgG4 (antibody, V domains shown, Humanized) VH: QVQLVQSGAEVKKPGASVKVSCKASGYTFISYYIYWVRQAPGQGLEWIGGINPRNGGTNFNEKFKSRATLTVDTSISTAYMELSRLRSEDTAVYYCTRHGNGVYWGQGTTVTVSS VL: DVVMTQSPLSLPVTLGDPASISCRSSQSLLHSNGNTYLHWYQQRPGQSPNHLIYQVSNRFSGVPDRFSGSGSGTDFTLKISRVEAEDVGVYFCSQTTHVPWTFGGGTKLEIK", 9.06],
  ["6A7-H4K2-IgG4 (antibody, V domains shown, Humanized) VH: QVQLVQSGAEVKKPGASVKLSCKASGYTFISYYIYWVKQAPGQGLEWIGGINPRNGGTNFNEKFKSRATLTVDTSISTAYMELSRLRSEDTAVYYCTRHGNGVYWGQGTTLTVSS VL: DVVMTQSPLSLPVTLGQPASISCRSSQSLLHSNGNTYLHWYQQRPGQSPNHLIYQVSNRFSGVPDRFSGSGSGTDFTLKISRVEAEDVGVYFCSQTTHVPWTFGGGTKVEIK", 8.40],
  ["4H6-H4K2-IgG4 (antibody, V domains shown, Humanized) VH: EVQLQESGPGLVKPSQTLSLTCTVSGDSVSSGYWNWIRKFPGKKLEYMGFISYSGSTYYTPSLKSRITISRDTSKNQFSLKLSSVTAADTAVYFCARFRRYDDGVDYWGQGTLVTVSS VL: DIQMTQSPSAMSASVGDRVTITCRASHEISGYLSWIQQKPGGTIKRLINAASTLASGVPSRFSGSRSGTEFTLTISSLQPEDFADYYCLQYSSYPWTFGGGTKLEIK", 7.53]
]}
